Origin of the recorded values: the C3SDB collision cross section collection

Listed here are compounds together with their documented collision cross section (N2).
# studyConditions: [M+Na]+; instrument: DT; stepped-field
Give the value, in units of Å², as a plain number.

[
  {
    "compound": "CCCCC/C=C\\C/C=C\\C/C=C\\CCCCC(=O)O[C@H](COCCCCCCCCCCCCCCCCCC)COP(=O)(O)OCCN [PE(o36:3)]",
    "collision cross section (N2) [Å²]": 285.4
  },
  {
    "compound": "CCCCC/C=C\\C/C=C\\C/C=C\\C/C=C\\CCCC(=O)OC[C@H](COP(=O)(O)OC[C@H](N)C(=O)O)OC(=O)CCCC/C=C\\C/C=C\\C/C=C\\CCCCC [PS(38:7)]",
    "collision cross section (N2) [Å²]": 290.2
  },
  {
    "compound": "CCCCCCCCCCCCC=CC[C@@H](O)[C@H](COP(=O)([O-])OCC[N+](C)(C)C)NC(=O)CCCCCCCCCCCCCCC [SM(34:1)]",
    "collision cross section (N2) [Å²]": 285.1
  }
]

[ask] Give its collision cross section (N2) value. Item: CC/C=C\C/C=C\C/C=C\C/C=C\C/C=C\CCCCCC(=O)O[C@H](COC(=O)CCC/C=C\C/C=C\C/C=C\C/C=C\C/C=C\CC)COP(=O)(O)OCCN [PE(42:10)]
[reply] 291

[ask] Next compound: CCCCCCCCCCCCCCCCCCCCCCCC(=O)N[C@@H](CO[C@@H]1O[C@H](CO)[C@@H](O)C(O)C1O)[C@H](O)CCCCCCCCCCCCCCC (stereo partly specified) [GlcCer(42:0)]
[reply] 308.2

[ask] Next compound: CC/C=C\C/C=C\C/C=C\C/C=C\C/C=C\C/C=C\CCC(=O)OC[C@H](COP(=O)(O)OC[C@H](N)C(=O)O)OC(=O)CCCCCCC/C=C\CCCCCCCC [PS(40:7)]
[reply] 295.6

* * *

Listed here are molecules together with their documented collision cross section (N2).
# studyConditions: [M+H]+; instrument: TW; calibrated with polyalanine and drug standards
Give the value, in units of Å², as a plain number.

[
  {
    "molecule": "CC(=O)Nc1cccc(O)c1",
    "collision cross section (N2), Å²": 130.6
  }
]

[ask] Give its collision cross section (N2) value. Item: "O=C(Nc1ccc(C(=O)O)c(O)c1)c1ccccc1"
[reply] 156.3

[ask] Next molecule: CN1C(=O)CCS(=O)(=O)C1c1ccc(Cl)cc1 (configuration not stated)
[reply] 158.2

* * *

# studyConditions: [M+Na-2H]-; instrument: DT; single field, calibrated with Agilent tune mix (Agilent)
measurementLabel: collision cross section (N2)

Answered cases to consult:
[
  {
    "molecule": "O=P(O)(O)OC[C@H]1O[C@H](OP(=O)(O)OP(=O)(O)O)[C@H](O)[C@@H]1O [5-Phospho-alpha-D-ribose 1-diphosphate]",
    "collision cross section (N2)": "161.1 Å²"
  },
  {
    "molecule": "NC(=NCCC[C@H](N)C(=O)O)N[C@@H](CC(=O)O)C(=O)O",
    "collision cross section (N2)": "159.57 Å²"
  },
  {
    "molecule": "O=C(O)[C@H]1O[C@H](OP(=O)(O)OP(=O)(O)OC[C@H]2O[C@@H](n3ccc(=O)[nH]c3=O)[C@H](O)[C@@H]2O)[C@H](O)[C@@H](O)[C@@H]1O",
    "collision cross section (N2)": "201.6 Å²"
  },
  {
    "molecule": "CC(C)(CO)[C@@H](O)C(=O)NCCC(=O)NCCS",
    "collision cross section (N2)": "164.94 Å²"
  },
  {
    "molecule": "O=c1nc[nH]c2c1ncn2[C@H]1C[C@H](O)[C@@H](COP(=O)(O)O)O1 [2'-Deoxyinosine 5'-monophosphate]",
    "collision cross section (N2)": "161.59 Å²"
  },
  {
    "molecule": "OC[C@H]1O[C@@H](Oc2ccc(O)cc2)[C@H](O)[C@@H](O)[C@@H]1O",
    "collision cross section (N2)": "159.52 Å²"
  },
  {
    "molecule": "N[C@@H](CCCCNC(=O)CCCC[C@@H]1SC[C@@H]2NC(=O)N[C@@H]21)C(=O)O",
    "collision cross section (N2)": "189.78 Å²"
  },
  {
    "molecule": "N[C@@H](CCS(=O)(=O)O)C(=O)O",
    "collision cross section (N2)": "132.56 Å²"
  }
]

[ask] Give its collision cross section (N2) value. Item: CC(O)C(=O)SC[C@H](NC(=O)CC[C@H](N)C(=O)O)C(=O)NCC(=O)O (some centres not stated)
[reply] 176.59 Å²

[ask] Next molecule: Nc1ccn(C2O[C@H](CO)[C@H]3OP(=O)(O)O[C@@H]23)c(=O)n1 (some centres not stated) [Cytidine 2',3'-cyclic phosphate]
[reply] 161.98 Å²

[ask] Next molecule: Nc1nc(=O)c2ncn([C@H]3C[C@H](O)[C@@H](COP(=O)(O)O)O3)c2[nH]1 [2'-Deoxyguanosine 5'-monophosphate]
[reply] 167.93 Å²

[ask] Next molecule: "N[C@@H](CC(=O)O)C(=O)N[C@@H](Cc1ccccc1)C(=O)O"
[reply] 162.34 Å²
